study.system: human NTSR-1 (Homo sapiens (Human))
Sequence (P30989 whole entry): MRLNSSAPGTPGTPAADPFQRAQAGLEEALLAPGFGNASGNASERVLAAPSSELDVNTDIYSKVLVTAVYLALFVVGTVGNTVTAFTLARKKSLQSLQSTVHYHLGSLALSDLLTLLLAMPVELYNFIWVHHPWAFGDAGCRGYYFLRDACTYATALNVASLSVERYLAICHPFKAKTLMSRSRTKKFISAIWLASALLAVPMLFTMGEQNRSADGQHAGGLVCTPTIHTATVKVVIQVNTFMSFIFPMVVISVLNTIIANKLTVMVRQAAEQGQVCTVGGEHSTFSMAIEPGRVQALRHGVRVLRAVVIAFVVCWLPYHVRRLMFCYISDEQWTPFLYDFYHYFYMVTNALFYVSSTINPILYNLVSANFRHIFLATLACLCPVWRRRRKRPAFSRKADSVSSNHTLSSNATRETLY
run.description: radioligand competitive binding assay using ^177Lu labeled C-1 as reference radioligand
measurement.parameters: Mean IC50 of C-1/Mean IC50 of the test compound
Field: Relative Binding Affinity. Provide a value for each of the compounds that follow.
One number for each entry.

Below, 5 compounds whose answers are already recorded.
1. COc1cccc(OC)c1-c1cc(C(=O)NC2(C(=O)O)C3CC4CC(C3)CC2C4)nn1-c1ccc(CCCCN(C)CCCN(C)C(=O)CN2CCN(CC(=O)O)CCN(CC(=O)O)CCN(CC(=O)O)CC2)cc1C(C)C (stereo not drawn) [Compound I-9]	243.5
2. CC(=O)N[C@@H](CCCCNC(=O)CN1CCN(CC(=O)O)CCN(CC(=O)O)CCN(CC(=O)O)CC1)C(=O)N1CCC[C@H]1C(=O)N(C)[C@@H](CCCNC(=N)N)C(=O)N[C@@H](CCCNC(=N)N)C(=O)N1CCC[C@H]1C(=O)N[C@@H](Cc1ccc(O)cc1)C(=O)N[C@H](C(=O)N[C@@H](CC(C)C)C(=O)O)C(C)(C)C [Compound C-1, reference compound]	1.00
3. COc1cccc(OC)c1-c1cc(C(=O)NC2(C(=O)O)C3CC4CC(C3)CC2C4)nn1-c1ccc(NCCCCCN(C)C)cc1C(C)C (stereo not drawn) [II-3]	535.2
4. COc1cccc(OC)c1-c1cc(C(=O)NC2(C(=O)O)C3CC4CC(C3)CC2C4)nn1-c1ccc(OCCCN(C)CCCN(C)C(=O)CN2CCN(CC(=O)O)CCN(CC(=O)O)CCN(CC(=O)O)CC2)cc1C(C)C (stereo not drawn) [Compound I-7]	156.7
5. COc1cccc(OC)c1-c1cc(C(=O)NC2(C(=O)O)C3CC4CC(C3)CC2C4)nn1-c1ccc(N(C)CCCN(C)CCCN(C)C(=O)CN2CCN(CC(=O)O)CCN(CC(=O)O)CCN(CC(=O)O)CC2)cc1C(C)C (stereo not drawn) [Compound I-1]	82.6

Hey, quick one: what's Relative Binding Affinity for each of these?
1. COc1cccc(OC)c1-c1cc(C(=O)NC2(C(=O)O)C3CC4CC(C3)CC2C4)nn1-c1ccc(C(=O)N(C)CCCN(C)C)cc1C(C)C (stereo not drawn) [Compound C-3, reference compound]
2. COc1cccc(OC)c1-c1cc(C(=O)NC2(C(=O)O)C3CC4CC(C3)CC2C4)nn1-c1ccc(C(=O)N(C)CCCN(C)CCCN(C)C(=O)CN2CCN(CC(=O)O)CCN(CC(=O)O)CCN(CC(=O)O)CC2)cc1C(C)C (stereo not drawn) [Compound C-2, reference compound]
3. COc1cccc(OC)c1-c1cc(C(=O)NC2(C(=O)O)C3CC4CC(C3)CC2C4)nn1-c1ccc(NCCOCCOCCNC(=O)CN2CCN(CC(=O)O)CCN(CC(=O)O)CCN(CC(=O)O)CC2)cc1C(C)C (stereo not drawn) [Compound I-10]
4. COc1cccc(OC)c1-c1cc(C(=O)NC2(C(=O)O)C3CC4CC(C3)CC2C4)nn1-c1ccc(NCCCN(C)C)cc1C(C)C (stereo not drawn) [II-1]

Result ::
13.7
7.2
28.3
107.6

###

Tested on: ASPC-1 tumor-bearing mice
run.description: Biodistribution of radionuclide labeled complexes in ASPC-1 tumor-bearing mice
Type: in vivo, BALB/c nude mice
measurement.parameters: ^177Lu-labeled complex
Rule: satisfied for AUC (0-72 h) ratio Tumor/Liver not less than 20, not satisfied for anything less.

Reference set, count: 5
1) COc1cccc(OC)c1-c1cc(C(=O)NC2(C(=O)O)C3CC4CC(C3)CC2C4)nn1-c1ccc(OCCCN(C)CCCN(C)C(=O)CN2CCN(CC(=O)O)CCN(CC(=O)O)CCN(CC(=O)O)CC2)cc1C(C)C (stereo not drawn)	satisfied
2) COc1cccc(OC)c1-c1cc(C(=O)NC2(C(=O)O)C3CC4CC(C3)CC2C4)nn1-c1ccc(NC(=O)CCCN(C)CCCN(C)C(=O)CN2CCN(CC(=O)O)CCN(CC(=O)O)CCN(CC(=O)O)CC2)cc1C(C)C (stereo not drawn)	not satisfied
3) COc1cccc(OC)c1-c1cc(C(=O)NC2(C(=O)O)C3CC4CC(C3)CC2C4)nn1-c1ccc(NCCOCCOCCNC(=O)CN2CCN(CC(=O)O)CCN(CC(=O)O)CCN(CC(=O)O)CC2)cc1C(C)C (stereo not drawn)	satisfied
4) COc1cccc(OC)c1-c1cc(C(=O)NC2(C(=O)O)C3CC4CC(C3)CC2C4)nn1-c1ccc(N(C)CCCN(C)CCCN(C)C(=O)CN2CCN(CC(=O)O)CCN(CC(=O)O)CCN(CC(=O)O)CC2)cc1C(C)C (stereo not drawn)	not satisfied
5) COc1cccc(OC)c1-c1cc(C(=O)NC2(C(=O)O)C3CC4CC(C3)CC2C4)nn1-c1ccc(C(=O)N(C)CCCN(C)CCCN(C)C(=O)CN2CCN(CC(=O)O)CCN(CC(=O)O)CCN(CC(=O)O)CC2)cc1C(C)C (stereo not drawn) [Compound C-2, reference compound]	not satisfied

Please turn your attention to the following entry.
Query :: Item COc1cccc(OC)c1-c1cc(C(=O)NC2(C(=O)O)C3CC4CC(C3)CC2C4)nn1-c1ccc(NCCCN(C)CCCNC(=O)CN2CCN(CC(=O)O)CCN(CC(=O)O)CCN(CC(=O)O)CC2)cc1C(C)C (stereo not drawn) with AUC (0-72 h) ratio Tumor/Liver of 20 or above?
Result :: not satisfied
